Test system: SN12C
Assay: NCI tumour cell line growth inhibition, 48 h
The source made the active and inactive calls. Cut-off read from the data, not from the text of the source: active = GI50 up to about 1.1 µM and inactive = higher.
GI50 values, listed per item

Worked cases, GI50 given:
C/C(=N\NC(=O)c1ccccc1O)c1c(O)cc(C)oc1=O ... > 100 µM (inactive)
Cn1cc[n+](-c2cc(=O)n(C)c(=O)[n-]2)c1 ... > 100 µM (inactive)
O=C1CC(C(OCc2ccccc2)C(OCc2ccccc2)C(OCc2ccccc2)C(COCc2ccccc2)OCc2ccccc2)CC(=O)N1 (stereo not given) ... > 100 µM (inactive)
C=C=C[P+](c1ccccc1)(c1ccccc1)c1ccccc1 ... 3.78 µM (inactive)
CCCCCCCCCC(=O)NCCc1c[nH]c2ccc(OC)cc12 ... 17.4 µM (inactive)
O=P(Oc1ccccc1)(Oc1ccccc1)Oc1c[nH]c2ccccc12 ... 11.6 µM (inactive)
CCOC(=O)Cn1c(=O)n(C)c(=O)c2[nH]cnc21 ... > 100 µM (inactive)
COC(=O)CC(CC(=O)C(=O)OC)C(=O)OC (stereo not given) ... > 100 µM (inactive)
CC(=O)OCC1OC(n2c(N)c(C#N)c(-c3cccc(Cl)c3)c(C#N)c2=S)C(OC(C)=O)C(OC(C)=O)C1OC(C)=O (stereo not given) ... 37.6 µM (inactive)

Turning now to a further compound:
Prompt: State its GI50 on SN12C: CC(=O)c1ccc(NC(=O)COC(=O)c2cccc3c(=O)c4ccccc4[nH]c23)cc1
Response: 16.1 µM (inactive)

Source listed as ChEMBL document CHEMBL1201862.
